biological target: Cytochrome P450 2D6 (Homo sapiens); test: Cytochrome panel assay with activity outcomes; conditions: recombinant CYP, pro-luciferin dealkylation, luminescence, p450-cyp2d6; series mostly up to 57.1 µM; for activity, negative = inhibition: % is set by controls: 0 for no effect and ±100 for the full control effect
Hit rate of the full screen: of about 16,000 compounds, about 2,600 (16%) were called active. About 20% were inconclusive and are not listed. A selection follows.
The compounds listed here are annotated with their activity, negative = inhibition.

{"Smiles": "CN1CCCC[C@@H]1CCN1CCCCC1", "activity, negative = inhibition": "-1.48% [at 11.4 µM] (inactive)"}
{"Smiles": "CSc1cccc(NC(=O)OC2CCCCCCCCCCC2)c1", "activity, negative = inhibition": "10.7% [at 11.4 µM] (inactive)"}
{"Smiles": "C[C@@H]1NCC[C@H](CC(=O)O)[C@H]1CC(=O)O", "activity, negative = inhibition": "5.62% [at 11.4 µM] (inactive)"}

Turning now to a further record.
GET /values?readout=activity, negative = inhibition&system=Cytochrome P450 2D6 (Homo sapiens)&item= `N[C@@H](Cc1ncccn1)C(=O)O` -1.91% [at 11.4 µM] (inactive)

---

molecular target: Cytochrome P450 2D6 (Homo sapiens) (UniProt P10635); assay: Cytochrome panel assay with activity outcomes; conditions: recombinant CYP, pro-luciferin dealkylation, luminescence, p450-cyp2d6; series mostly up to 57.1 µM
Sequence (P10635 whole entry, looked up): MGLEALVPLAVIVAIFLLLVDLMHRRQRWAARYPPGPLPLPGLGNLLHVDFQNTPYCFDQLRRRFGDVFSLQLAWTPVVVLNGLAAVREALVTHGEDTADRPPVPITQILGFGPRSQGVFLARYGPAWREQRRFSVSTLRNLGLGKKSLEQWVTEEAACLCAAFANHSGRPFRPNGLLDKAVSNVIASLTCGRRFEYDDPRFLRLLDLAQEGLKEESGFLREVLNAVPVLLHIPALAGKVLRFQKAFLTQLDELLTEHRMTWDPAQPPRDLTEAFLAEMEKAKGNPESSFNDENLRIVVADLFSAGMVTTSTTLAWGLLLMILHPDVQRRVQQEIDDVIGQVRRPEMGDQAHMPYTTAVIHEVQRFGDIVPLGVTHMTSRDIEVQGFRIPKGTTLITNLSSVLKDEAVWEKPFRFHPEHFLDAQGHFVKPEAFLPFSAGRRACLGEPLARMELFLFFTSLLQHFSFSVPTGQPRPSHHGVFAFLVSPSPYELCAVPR
In all, about 16,000 compounds went through this assay and about 2,600 (16%) were called active. Inconclusive results (about 20%) are left out. The call rests on the fitted dose curve; in most records, active means well fitted curve in the direction sought with a large enough effect; inconclusive means small, poorly fitted or top-dose-only effect, or effect the other way; inactive means no such curve, though single readings can be large or run the other way. A selection follows.
Choose the fitting class; nothing outside yes (1) = active, no (0) = inactive is accepted.

{"Compound": "CCc1ccc2c(c1)c(N=NC1=NC(=O)CS1)c(O)n2CC", "Test Target": "Cytochrome P450 2D6 (Homo sapiens) (UniProt P10635)", "Label Value": "no (0)"}
{"Compound": "Cn1c(=O)n(-c2cccc(Cl)c2)c(=O)c2c3c(sc21)COC(C)(C)C3", "Test Target": "Cytochrome P450 2D6 (Homo sapiens) (UniProt P10635)", "Label Value": "no (0)"}
{"Compound": "Cc1sc(NC(=O)/C=C/c2ccc(C(C)C)cc2)c(C#N)c1C", "Test Target": "Cytochrome P450 2D6 (Homo sapiens) (UniProt P10635)", "Label Value": "no (0)"}
{"Compound": "O=C(Nc1cccc(F)c1)N1CCCC2(CCNCC2)C1", "Test Target": "Cytochrome P450 2D6 (Homo sapiens) (UniProt P10635)", "Label Value": "no (0)"}

Identify the outcome logged in this assay for the compound shown: `Cc1ccc(NC(=O)/C(=C/c2cccc([N+](=O)[O-])c2)NC(=O)C2CCCCC2)c(C)c1` no (0)

For `CN1CCN(c2ncncc2-c2ccc(N(C)C)cc2)CC1` , which call appears in the assay record? yes (1)

Field: outcome | Entry: `CC(=O)NCCNc1ncnc2ccc(-c3ccccc3C#N)cc12` no (0)

Could you check what this test reported for `O=C(NCc1ccco1)c1cc(C(=O)C2CCCCC2)c[nH]1` ? no (0)

Please share the test call associated with `COc1ccc(O)c(/C=N/NC(=O)CSc2nnc(C)n2-c2ccccc2)c1` . no (0)

Outcome? `CCOC(=O)CSc1nc(-c2ccccc2)nc2ccccc12` no (0)

Could you please tell me the result logged for CCCOc1ccccc1C1CC(=O)NC(C)=C1C(=O)OCC(C)C (configuration not stated) in this assay? no (0)

---

molecular target: Cytochrome P450 2D6 (Homo sapiens) (UniProt P10635); assay: Cytochrome panel assay with activity outcomes; conditions: recombinant CYP, pro-luciferin dealkylation, luminescence, p450-cyp2d6; series mostly up to 57.1 µM
In all, about 16,000 compounds went through this assay and about 2,600 (16%) were called active. Not shown: some 20% with an inconclusive outcome. Calls come from the whole dose curve; as a rule, active = well fitted curve in the direction sought with a large enough effect; inconclusive = small, poorly fitted or top-dose-only effect, or effect the other way; inactive = no such curve, though single readings can be large or run the other way. These entries were drawn from the full list.
Pick one and only one: True = active, False = inactive

Solved cases (4 shown):
{"Compound": "COCCNc1nc(SCc2ccccc2)nc2sc3c(c12)CCC3", "Label Value": "False"}
{"Compound": "C/C(=N\\NC(=O)c1cccc(Br)c1)c1ccc(Br)cc1", "Label Value": "False"}
{"Compound": "CCC(=O)NC(NCC1CCCO1)C(Cl)(Cl)Cl (stereo not drawn)", "Label Value": "False"}
{"Compound": "O=C(Oc1ccccc1)N1CCC2(CCCN(c3ccccc3)C2)CC1", "Label Value": "False"}

Dear all, I need the recorded test outcome for `O=c1cnc2cnc(Oc3ccccc3)nc2n1Cc1ccc(F)cc1` , thank you. False

---

target: Cytochrome P450 2D6 (Homo sapiens); assay: Cytochrome panel assay with activity outcomes; settings: recombinant CYP, pro-luciferin dealkylation, luminescence, p450-cyp2d6; series mostly up to 57.1 µM
Screen size: about 16,000 compounds; about 2,600 (16%) were called active. About 20% were inconclusive and are not listed. Calls follow the shape of the dose curve; as a rule, active = well fitted curve in the direction sought with a large enough effect; inconclusive = small, poorly fitted or top-dose-only effect, or effect the other way; inactive = no such curve, though single readings can be large or run the other way. These entries were drawn from the full list.
# valid calls are YES = active, NO = inactive; nothing else

Dear all, I need the recorded test outcome for `O=C(CSc1n[nH]c(-c2ccccc2O)n1)N1CCCc2ccccc21` , thank you. YES

Dear all, I need the recorded test outcome for `Cc1ccc(S(=O)(=O)/C=C\C#N)cc1` , thank you. YES

I'd appreciate the recorded outcome for `Clc1ccc(CSCCc2ccncc2)cc1Cl` from this test. YES

---

molecular target: Cytochrome P450 2D6 (Homo sapiens) (UniProt P10635); assay: Cytochrome panel assay with activity outcomes; settings: recombinant CYP, pro-luciferin dealkylation, luminescence, p450-cyp2d6; series mostly up to 57.1 µM; for activity, negative = inhibition: % is set by controls: 0 for no effect and ±100 for the full control effect
Among all 16,000 compounds or so, about 2,600 (16%) were called active. Roughly 20% stayed inconclusive and do not appear here. These entries were drawn from the full list.
List of activity, negative = inhibition values.

Look over these answered cases.
{"Smiles": "O=S(=O)(O)c1cc(N=Nc2cccc3ccccc23)c(O)c2ncccc12", "activity, negative = inhibition": "-9.94% [at 11.4 µM] (inactive)"}
{"Smiles": "N/C(=N\\O)c1cn([C@@H]2O[C@@H](CO)[C@H](O)[C@@H]2O)c2ncnc(NO)c12", "activity, negative = inhibition": "14.4% [at 11.4 µM] (inactive)"}

Proceed to the following item.
Need activity, negative = inhibition, item `O=C1CC[C@H](NC(=O)c2ccccc2)C(=O)N1` 1.49% [at 11.4 µM] (inactive)

---

biological target: Cytochrome P450 2D6 (Homo sapiens) (UniProt P10635); experiment: Cytochrome panel assay with activity outcomes; details: recombinant CYP, pro-luciferin dealkylation, luminescence, p450-cyp2d6; series mostly up to 57.1 µM
Hit rate of the full screen: of about 16,000 compounds, about 2,600 (16%) were called active. Another 20% or so got no clear call; they are omitted. Calls follow the shape of the dose curve; as a rule, active = well fitted curve in the direction sought with a large enough effect; inconclusive = small, poorly fitted or top-dose-only effect, or effect the other way; inactive = no such curve, though single readings can be large or run the other way. A selection follows.
Your answer must be one of the following: active, inactive

Answered cases to consult:
{"Molecule": "Cc1noc(C)c1C(=O)N1CCC2(CCCN(C(c3ccccc3)c3ccccc3)C2)CC1", "Label Value": "active"}
{"Molecule": "O=C(CN1CCN(c2ccc(Cl)cc2)CC1)Nc1ccc(F)c(F)c1", "Label Value": "active"}
{"Molecule": "CCN(CC(=O)Nc1ccc2c(c1)OCCO2)C(=O)c1cccc(S(=O)(=O)N2CCOCC2)c1", "Label Value": "inactive"}
{"Molecule": "CCn1nnnc1SCC(=O)NC1CCCC1", "Label Value": "inactive"}
{"Molecule": "O=C(/C=C/c1ccc(Cl)cc1)NCCN1CCOCC1", "Label Value": "inactive"}
{"Molecule": "CC(=O)OC[C@H]1O[C@@H](ON=C(C)C)[C@H](OC(C)=O)[C@@H](OC(C)=O)[C@H]1OC(C)=O", "Label Value": "active"}
{"Molecule": "COc1ccc(NC(=O)N2CC3(CCN(C(=O)c4c(C)noc4C)CC3)C2)cc1", "Label Value": "inactive"}
{"Molecule": "COc1ccc(NC(=O)N2CCCC3(CCN(C(=O)c4c(C)noc4C)CC3)C2)cc1", "Label Value": "active"}

Now look at this entry.
Per the records of this test, what outcome belongs to `O=C(CN1C(=O)NC2(CCCC2)C1=O)NCCC1=CCCCC1` ? inactive

---

molecular target: Cytochrome P450 2D6 (Homo sapiens); test: Cytochrome panel assay with activity outcomes; conditions: recombinant CYP, pro-luciferin dealkylation, luminescence, p450-cyp2d6; series mostly up to 57.1 µM
Hit rate of the full screen: of about 16,000 compounds, about 2,600 (16%) were called active. Another 20% or so got no clear call; they are omitted. Calls follow the shape of the dose curve; as a rule, active = well fitted curve in the direction sought with a large enough effect; inconclusive = small, poorly fitted or top-dose-only effect, or effect the other way; inactive = no such curve, though single readings can be large or run the other way. A selection follows.
Output constraint: value belongs to active, inactive

// param item: COC(=O)C(Cc1ccc(OC(=O)c2ccc(C(F)(F)F)cc2)cc1)N1Cc2ccccc2C1=O (centres undefined) ; yields the recorded call inactive

---

Target: Cytochrome P450 2D6 (Homo sapiens) (UniProt P10635)
Experiment: Cytochrome panel assay with activity outcomes
Settings: recombinant CYP, pro-luciferin dealkylation, luminescence, p450-cyp2d6; series mostly up to 57.1 µM
Procedure: The P450 gene superfamily is involved in the metabolism and clearance of xenobiotics. This assay used various human CYP P450 isozymes to measure the dealkylation of various pro-luciferin substrates to luciferin. The luciferin is then measured by luminescence after the addition of a luciferase detection reagent. […] Inhibitors and some substrates limit the production of luciferin, and decrease measured luminescence. […] 8, Detection, 1 sec, ViewLux luminescent read […]
About 2,600 (16%) of roughly 16,000 compounds were called active. Another 20% or so got no clear call; they are omitted. Calls come from the whole dose curve; as a rule, active = well fitted curve in the direction sought with a large enough effect; inconclusive = small, poorly fitted or top-dose-only effect, or effect the other way; inactive = no such curve, though single readings can be large or run the other way. These entries were drawn from the full list.
Assign a class; possible classes are active, inactive

{"Compound": "COc1ccc2c(c1)c(CC(=O)O)c(C)n2C(=O)c1ccc(Cl)cc1", "Label Value": "inactive"}
{"Compound": "O=C(CCCn1c(=S)[nH]c2ccc(Br)cc2c1=O)NCC1CCCO1 (stereo not given)", "Label Value": "inactive"}
{"Compound": "CCOc1[nH]n(-c2ccc(Cl)cc2)c(=O)c1C=Nc1ccc(Cl)cc1", "Label Value": "inactive"}
{"Compound": "COc1ccc(C2=NOC(C(=O)Nc3ccc(C(C)=O)cc3)C2)cc1OC (stereo not given)", "Label Value": "inactive"}

Short answer needed: outcome of this test for `O=C(CCCn1c(=S)[nH]c2cc3c(cc2c1=O)OCO3)N1CCN(c2ncccn2)CC1` ? active
